// data source = patent USRE45173E1

molecular target: recombinant human CYP17 enzyme (Homo sapiens (Human)); experiment: Cytochrome P450, 17-20 lyase (CYP17-lyase) assay, tritiated acetic acid release from 17-α-hydroxy pregnenolone [21-3H]; format: biochemical; details: human CYP17, substrate 0.25 μM; read-out: Lyase IC 50 nM Human/Rat (Human)
Entries are sorted into classes by IC50 as follows: lower band: < 30 nM; central band: ≥ 30 nM and < 90 nM; upper band: ≥ 90 nM

Which category fits this record: Cc1ccncc1N1CCN(c2c[nH]c3ccccc23)C1=O [Example 107A] upper band

Which category fits this record: Cc1ccncc1N1CCN(c2ccccc2)C1=O [Example 69A] central band

Which category fits this record: Cc1ccncc1-n1ccn(-c2ccc3ncsc3c2)c1=O [Example 142A] lower band

Which category fits this record: Cc1ccncc1N1CCN(c2ccc3c(c2)OC(F)(F)O3)C1=O [Example 64A] central band

Which category fits this record: Cc1cc(NCc2ccncc2N2CCN(c3ccc4ncsc4c3)C2=O)n[nH]1 [Example 182A] lower band

Which category fits this record: Cc1ccncc1N1CCN(c2ccc3c(ccn3C)c2)C1=O [Example 134A] upper band

Which category fits this record: Cc1ccncc1N1CCN(c2cnc3ccccn23)C1=O [Example 119A] upper band

Which category fits this record: O=C1N(c2ccc3ncsc3c2)CCN1c1cnccc1Cl [Example 84A] central band

Which category fits this record: Cc1ccncc1N1CCN(c2cccc(Cl)c2)C1=O [Example 88A] lower band

* * *

Would you mind telling me the reported IC50 of each entry?
target: recombinant human CYP17 enzyme (Homo sapiens (Human), UniProt P05093); assay: Cytochrome P450, 17-20 lyase (CYP17-lyase) assay, tritiated acetic acid release from 17-α-hydroxy pregnenolone [21-3H]; type: biochemical; conditions: human CYP17, substrate 0.25 μM; read-out: Lyase IC 50 nM Human/Rat (Human)
Sequence (P05093 whole entry): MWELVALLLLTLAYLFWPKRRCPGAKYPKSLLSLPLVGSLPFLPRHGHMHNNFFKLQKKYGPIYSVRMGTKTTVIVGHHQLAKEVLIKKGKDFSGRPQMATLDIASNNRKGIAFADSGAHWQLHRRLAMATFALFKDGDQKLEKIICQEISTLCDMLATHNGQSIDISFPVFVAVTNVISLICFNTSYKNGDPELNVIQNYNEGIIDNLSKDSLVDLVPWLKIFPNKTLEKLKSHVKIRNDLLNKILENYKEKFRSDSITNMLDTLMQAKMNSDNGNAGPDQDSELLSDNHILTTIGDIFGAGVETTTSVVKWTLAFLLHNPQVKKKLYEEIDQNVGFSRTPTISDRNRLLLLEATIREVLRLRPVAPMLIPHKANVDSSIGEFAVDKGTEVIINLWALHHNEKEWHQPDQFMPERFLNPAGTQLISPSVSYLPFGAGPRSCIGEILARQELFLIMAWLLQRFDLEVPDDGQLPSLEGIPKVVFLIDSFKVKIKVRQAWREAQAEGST
A number alone suffices; assume nM.

Name the reported IC50 value associated with the compound Cc1ccncc1N1CCN(c2cccc(C#N)c2)C1=O [Example 106A] 35

Name the reported IC50 value associated with the compound Cn1cncc1N1CCN(c2ccc3ncsc3c2)C1=O [Example 188A] 195

Name the reported IC50 value associated with the compound Cc1ccncc1N1CCN(c2ccc(Cl)s2)C1=O [Example 41A] 10

Name the reported IC50 value associated with the compound Cc1ccncc1N1CCN(c2cnc3ccccc3c2)C1=O [Example 24A] 72

Name the reported IC50 value associated with the compound Cc1ccncc1N1CCN(c2cc3ccccc3s2)C1=O [Example 26A] 15

Name the reported IC50 value associated with the compound Cc1ccncc1N1CCN(c2cc3c(Cl)nccc3s2)C1=O [Example 98A] 18

Name the reported IC50 value associated with the compound Cc1ccncc1N1CCN(c2cccc3ccccc23)C1=O [Example 133A] 1970

Name the reported IC50 value associated with the compound Cc1ccncc1N1CCN(c2ccc(F)c(Cl)c2)C1=O [Example 46A] 10

Name the reported IC50 value associated with the compound Cc1ccncc1N1CCN(c2ccc3cc[nH]c3c2)C1=O [Example 144A] 174

Name the reported IC50 value associated with the compound COc1nccc2sc(N3CCN(c4cnccc4C)C3=O)cc12 [Example 97A] 356

* * *

Would you mind telling me the reported IC50 of each entry?
target: recombinant human CYP17 enzyme (Homo sapiens (Human), UniProt P05093); experiment: Cytochrome P450, 17-20 lyase (CYP17-lyase) assay, tritiated acetic acid release from 17-α-hydroxy pregnenolone [21-3H]; type: biochemical; conditions: human CYP17, substrate 0.25 μM; read-out: Lyase IC 50 nM Human/Rat (Human)
A number alone suffices; assume nM.

Param readout = IC50; param system = recombinant human CYP17 enzyme (Homo sapiens (Human), UniProt P05093); param query = Cc1ccncc1N1CCN(c2cccc(C(F)(F)F)c2)C1=O [Example 70A] ; response: value 6.5

Param readout = IC50; param system = recombinant human CYP17 enzyme (Homo sapiens (Human), UniProt P05093); param query = Cc1cccc(N2CCN(c3cnccc3C(F)(F)F)C2=O)c1 [Example 131A] ; response: value 103

Param readout = IC50; param system = recombinant human CYP17 enzyme (Homo sapiens (Human), UniProt P05093); param query = O=C1N(c2ccc3ncsc3c2)CCN1c1cnccc1CN1CCCC1 [Example 176A] ; response: value 39

Param readout = IC50; param system = recombinant human CYP17 enzyme (Homo sapiens (Human), UniProt P05093); param query = COc1cc(N2CCN(c3cnccc3C)C2=O)ccc1F [Example 74A] ; response: value 76

Param readout = IC50; param system = recombinant human CYP17 enzyme (Homo sapiens (Human), UniProt P05093); param query = Cc1ccncc1N1CCN(c2cn(C)c3ccc(Cl)cc23)C1=O [Example 137A] ; response: value 1550

Param readout = IC50; param system = recombinant human CYP17 enzyme (Homo sapiens (Human), UniProt P05093); param query = Cc1ccncc1N1CCN(c2ccn3ccnc3c2)C1=O [Example 73A, 1-imidazolidin-2-one] ; response: value 109

Param readout = IC50; param system = recombinant human CYP17 enzyme (Homo sapiens (Human), UniProt P05093); param query = O=C1N(c2ccc3ncsc3c2)CCN1c1cnccc1CN1CCOCC1 [Example 177A] ; response: value 32

* * *

Biological target: recombinant human CYP17 enzyme (Homo sapiens (Human), UniProt P05093)
Test: Cytochrome P450, 17-20 lyase (CYP17-lyase) assay, tritiated acetic acid release from 17-α-hydroxy pregnenolone [21-3H]
Format: biochemical
Conditions: human CYP17, substrate 0.25 μM; read-out: Lyase IC 50 nM Human/Rat (Human)
Experimental: Assay method was adopted from a published protocol with some modifications to suit our requirements (Dmitry N Grigoryev et al, Analytical Biochemistry, (1999) 267, 319-330). […] The tritiated acetic acid released in the assay thus extracted is quantified to determine the enzyme activity. […] Km for this substrate was determined by monitoring the tritiated acetic acid release as a function of substrate concentration. […]
assay_metric: log10 IC50 (log10 of the value in nM)
Lab note - IC50 converted to log10 from values in nM.

Name the reported log10 IC50 value associated with the compound Cc1ccncc1N1CCN(c2ccc3c(C)noc3c2)C1=O [Example 111A] 2.03

Name the reported log10 IC50 value associated with the compound O=C1N(c2ccc3ncsc3c2)CCN1c1cnccc1CO [Example 126A] 1.40

Name the reported log10 IC50 value associated with the compound Cc1c(Cl)cncc1N1CCN(c2ccc3ncsc3c2)C1=O [Example 151A] 1.12

Name the reported log10 IC50 value associated with the compound Cc1ccncc1N1C(=O)N(c2ccc3ncsc3c2)CC1(C)C [Example 165A] 3.06

Name the reported log10 IC50 value associated with the compound Cc1ccncc1N1CCN(c2ccc3sccc3c2)C1=O [Example 27A] 1.38

Name the reported log10 IC50 value associated with the compound Cc1ccc(N2CCN(c3cnccc3C)C2=O)s1 [Example 15A] 1.00

Name the reported log10 IC50 value associated with the compound Cc1ccncc1N1CCN(c2cccc(Cl)c2F)C1=O [Example 86A] 3.08

Name the reported log10 IC50 value associated with the compound Cc1ccncc1N1CCN(c2cnc3[nH]cnc3c2)C1=O [Example 122A, Trifluoroacetic Acid] 2.58

Name the reported log10 IC50 value associated with the compound Cc1ccncc1N1CCN(c2ccc3onc(C)c3c2)C1=O [Example 101A] 1.66

Name the reported log10 IC50 value associated with the compound Cc1ccncc1N1CC(C)N(c2ccc3ncsc3c2)C1=O (stereo not shown) [Example 166A] 1.51

* * *

target: recombinant human CYP17 enzyme (Homo sapiens (Human), UniProt P05093); assay: Cytochrome P450, 17-20 lyase (CYP17-lyase) assay, tritiated acetic acid release from 17-α-hydroxy pregnenolone [21-3H]; type: biochemical; conditions: human CYP17, substrate 0.25 μM; read-out: Lyase IC 50 nM Human/Rat (Human)
Would you mind telling me the reported IC50 of each entry?
A number alone suffices; assume nM.

Name the reported IC50 value associated with the compound Cc1ccncc1N1CCN(c2ccc3cccnc3c2)C1=O [Example 162A] 317

Name the reported IC50 value associated with the compound Cc1ccncc1N1CCN(c2ccc3nccnc3c2)C1=O [Example 77A] 195

Name the reported IC50 value associated with the compound Cc1ccncc1N1CCN(c2ccc3ccccc3c2)C1=O [Example 14A] 17

Name the reported IC50 value associated with the compound Cc1ccncc1N1CCN(c2ccc3nccn3c2)C1=O [Example 94A] 110

Name the reported IC50 value associated with the compound COC(OC)c1ccncc1N1CCN(c2ccc3ncsc3c2)C1=O [Example 149A] 37

* * *

target: rat CYP17 lyase (Rattus norvegicus (Rat)); test: rat CYP 17 Lyase model, rat testes microsomes as the source; assay type: biochemical; settings: rat testes microsomes, substrate 0.5 μM; read-out: Lyase IC 50 nM Human/Rat (Rat)
Sequence (P11715 whole entry): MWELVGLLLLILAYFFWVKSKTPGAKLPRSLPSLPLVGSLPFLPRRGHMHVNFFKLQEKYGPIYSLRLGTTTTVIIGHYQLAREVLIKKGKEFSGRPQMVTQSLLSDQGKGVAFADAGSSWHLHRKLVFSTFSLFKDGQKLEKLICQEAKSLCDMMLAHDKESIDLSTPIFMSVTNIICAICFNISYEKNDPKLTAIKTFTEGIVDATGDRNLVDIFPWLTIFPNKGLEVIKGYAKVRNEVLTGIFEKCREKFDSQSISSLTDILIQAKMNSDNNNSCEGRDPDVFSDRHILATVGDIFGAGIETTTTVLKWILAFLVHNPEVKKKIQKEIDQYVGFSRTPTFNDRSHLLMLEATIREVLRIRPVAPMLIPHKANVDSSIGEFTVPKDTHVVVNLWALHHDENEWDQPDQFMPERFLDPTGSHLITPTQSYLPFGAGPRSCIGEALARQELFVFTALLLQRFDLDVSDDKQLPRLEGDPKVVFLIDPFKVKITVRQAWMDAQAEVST
Would you mind telling me the reported log10 of IC50 of each entry?
Lab note - IC50 converted to log10 from values in nM.

Name the reported log10 of IC50 value associated with the molecule O=C1N(c2cccnc2)CCN1c1ccc2sccc2c1 1.20

Name the reported log10 of IC50 value associated with the molecule Cc1ccncc1N1CCN(c2ccc(Cl)s2)C1=O [Example 41A] 0.48

Name the reported log10 of IC50 value associated with the molecule CCn1c(=O)cc(C)c2cc(N3CCN(c4cnccc4C)C3=O)ccc21 [Example 20A] 1.75

Name the reported log10 of IC50 value associated with the molecule Cc1ccncc1N1CCN(c2ccc(F)cc2)C1=O [Example 18A] 1.08

Name the reported log10 of IC50 value associated with the molecule Cc1ccncc1N1CCN(c2ccc3ccccc3c2)C1=O [Example 14A] 0.30

Name the reported log10 of IC50 value associated with the molecule Cc1ccncc1N1CCN(c2ccc3ccccc3n2)C1=O [Example 23A] 1.30
